- System: CCRF-CEM;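 also: ALL cell lines in 384-well plates, five doses spanning 10,000-fold, each plate scaled between vehicle and 100 µmol/L benzalkonium chloride controls, sDSS an adapted area-under-curve metric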
- PROCEDURE TEXT: selective drug sensitivity score (sDSS, relative to normal bone marrow) (sDSS (score)); higher = more potent and effective on the cell line relative to normal bone marrow cells
- EXPERIMENTAL PARAMETERS: 72 h

{"COMPOUND": "CN1CCC(CNc2ccc3ncc(-c4cccc(OC(F)(F)F)c4)n3n2)CC1 [SGI-1776] (top concentration 10000 nM)", "selective drug sensitivity score": 0.52}
{"COMPOUND": "C[C@H]1C=C2C(=O)O[C@H]3CC[C@@H](C1)[C@@]23O [Galiellalactone] (top concentration 25000 nM)", "selective drug sensitivity score": 5.86}
{"COMPOUND": "Cn1cc(-c2ccc(F)c(C(F)(F)F)c2)nc1C1CCN(c2ncnc3[nH]ncc23)CC1 (top concentration 10000 nM)", "selective drug sensitivity score": 0.86}
{"COMPOUND": "Cc1nc(Nc2n[nH]c3c2CN(C(=O)N[C@H](CN(C)C)c2ccccc2)C3(C)C)c2sccc2n1 (top concentration 10000 nM)", "selective drug sensitivity score": 6.98}
